- Organism: Rattus norvegicus
- assaySummary: DrugMatrix - Regimen: Daily Repeat
- Assay type: toxicity, organism-based, Sprague-Dawley
- Set-up: regimen Daily Repeat, gender Male, age 6-8 weeks
- details: in vivo, po, 0 mg/kg, 72 h, tissue Plasma, route oral GAVAGE, dose level Control, time 3 day, vehicle .5 % CMC
readout: ALBUMIN (G/DL)
Give bare numbers, in G/DL.

Problem: // returns reported ALBUMIN for input COc1cc2nc(N3CCN(C(=O)c4ccco4)CC3)nc(N)c2cc1OC
Result: 4.15

Problem: Entry to check: O=C1C(CC[S+]([O-])c2ccccc2)C(=O)N(c2ccccc2)N1c1ccccc1 (stereo not given)
Result: 4.15

Problem: Same question for CCN(CC)CCOc1ccc(/C(=C(/Cl)c2ccccc2)c2ccccc2)cc1 please.
Result: 4.27

Problem: Field entry: CNCCC(Oc1ccc(C(F)(F)F)cc1)c1ccccc1 (stereo not given)
Result: 3.9

# next molecule below
Problem: // ALBUMIN lookup, key: C[C@H]1O[C@@H](n2cc(F)c(=O)[nH]c2=O)[C@H](O)[C@@H]1O
Result: 4.15

----------
Give measured URIC ACID for each item. Keep answers brief.
- Species: Rattus norvegicus
- assaySummary: DrugMatrix - Regimen: Daily Repeat
- Format: toxicity, organism-based, Sprague-Dawley
- Set-up: regimen Daily Repeat, gender Male, age 6-8 weeks
- details: in vivo, po, 0 mg/kg, 72 h, tissue Plasma, route oral GAVAGE, dose level Control, time 3 day, vehicle .5 % CMC
Give bare numbers, in mg/dL.

Problem: # lookup: URIC ACID of COc1cc2nc(N3CCN(C(=O)c4ccco4)CC3)nc(N)c2cc1OC [PRAZOSIN]
Result: 1.8

Quick batch: URIC ACID for everything below.
1. CCN(CC)CCOc1ccc(/C(=C(/Cl)c2ccccc2)c2ccccc2)cc1 [ENCLOMIPHENE]
2. O=C1Nc2ccc(Cl)cc2C(c2ccccc2Cl)=NC1O (stereo not given) [LORAZEPAM]
3. COC1=C(OC)C(=O)C(CCCCCCCCCCO)=C(C)C1=O [IDEBENONE]

Result:
1: 1.63; 2: 1.8; 3: 1.28

Could I get URIC ACID for every one of these entries?
1. O=C1C(CC[S+]([O-])c2ccccc2)C(=O)N(c2ccccc2)N1c1ccccc1 (stereo not given) [SULFINPYRAZONE]
2. O=C1CN=C(c2ccccc2Cl)c2cc([N+](=O)[O-])ccc2N1 [CLONAZEPAM]
3. C[C@H]1O[C@@H](n2cc(F)c(=O)[nH]c2=O)[C@H](O)[C@@H]1O [DOXIFLURIDINE]
4. Cn1c(=O)c2c(ncn2CC(O)CO)n(C)c1=O (stereo not given) [DYPHYLLINE]
5. CN/C(=N/CCSCc1nc[nH]c1C)NC#N [CIMETIDINE]
6. CN(C)[C@@H]1C(O)=C(C(N)=O)C(=O)[C@@]2(O)C(O)=C3C(=O)c4c(O)ccc(Cl)c4[C@@](C)(O)[C@H]3C[C@@H]12 [CHLORTETRACYCLINE]

Result:
1: 1.8; 2: 1.28; 3: 1.28; 4: 1.3; 5: 1.28; 6: 1.3

----------
Can you tell me ALANINE AMINOTRANSFERASE for the items I'm about to list?
- Organism: Rattus norvegicus
- assaySummary: DrugMatrix - Regimen: Daily Repeat
- Assay type: toxicity, organism-based, Sprague-Dawley
- Parameters: regimen Daily Repeat, gender Male, age 6-8 weeks
- details: in vivo, po, 0 mg/kg, 72 h, tissue Plasma, route oral GAVAGE, dose level Control, time 3 day, […]
One number for each entry, in u/L.

Record excerpt, results attached:
Problem: May I ask what ALANINE AMINOTRANSFERASE has been recorded for CO[C@H]1/C=C/O[C@@]2(C)Oc3c(C)c(O)c4c(O)c(c(/C=N/N5CCN(C6CCCC6)CC5)c(O)c4c3C2=O)NC(=O)/C(C)=C\C=C\[C@H](C)[C@H](O)[C@@H](C)[C@@H](O)[C@@H](C)[C@H](OC(C)=O)[C@@H]1C ?
Result: 58.67

Problem: Next compound: CC(C)(C)NC(=O)[C@H]1CC[C@H]2[C@@H]3CC[C@H]4NC(=O)C=C[C@]4(C)[C@H]3CC[C@]12C [FINASTERIDE]
Result: 75.33

Problem: And then COc1cc(N)c(Cl)cc1C(=O)NC1CCN(CCCOc2ccc(F)cc2)CC1OC (centres undefined) [CISAPRIDE] , what is it?
Result: 72

***
Problem: Quick check: ALANINE AMINOTRANSFERASE of Clc1ccc(COC(Cn2ccnc2)c2ccc(Cl)cc2Cl)cc1 (centres undefined) ?
Result: 97.67

----------
- Species: Rattus norvegicus
- assaySummary: DrugMatrix - Regimen: Daily Repeat
- Assay type: toxicity, organism-based, Sprague-Dawley
- Design: regimen Daily Repeat, gender Male, age 6-8 weeks
- details: in vivo, po, 0 mg/kg, 120 h, tissue Blood, route oral GAVAGE, dose level Control, time 5 day, vehicle .5 % CMC
Kindly state ABSOLUTE MONOCYTE for each of the entries shown.
Answers are plain numbers, in CELLS/uL.

Below, each entry is followed by its recorded ABSOLUTE MONOCYTE result.
Problem: Fill in: ABSOLUTE MONOCYTE of COc1cc2nc(N3CCN(C(=O)c4ccco4)CC3)nc(N)c2cc1OC is ___
Result: 139.83

Problem: What would you report for O=C1C(CC[S+]([O-])c2ccccc2)C(=O)N(c2ccccc2)N1c1ccccc1 (centres undefined) ?
Result: 139.83

Problem: And what about the compound O=C1Nc2ccc(Cl)cc2C(c2ccccc2Cl)=NC1O (centres undefined) ?
Result: 139.83

Problem: Now give it for Cn1c(=O)c2c(ncn2CC(O)CO)n(C)c1=O (centres undefined) too.
Result: 173

Problem: Param item: CN/C(=N/CCSCc1nc[nH]c1C)NC#N
Result: 303.83

Problem: Now consider C[C@H]1O[C@@H](n2cc(F)c(=O)[nH]c2=O)[C@H](O)[C@@H]1O and answer again.
Result: 303.83

Problem: Moving on to the next compound: COC1=C(OC)C(=O)C(CCCCCCCCCCO)=C(C)C1=O
Result: 303.83

Problem: Try this compound too: O=C1CN=C(c2ccccc2Cl)c2cc([N+](=O)[O-])ccc2N1
Result: 303.83

Please find the next compound below.
Problem: I would be grateful if you could share the reported ABSOLUTE MONOCYTE for CN(C)[C@@H]1C(O)=C(C(N)=O)C(=O)[C@@]2(O)C(O)=C3C(=O)c4c(O)ccc(Cl)c4[C@@](C)(O)[C@H]3C[C@@H]12 .
Result: 173

----------
- Species on record: Rattus norvegicus
- assaySummary: DrugMatrix - Regimen: Daily Repeat
- Format: toxicity, organism-based, Sprague-Dawley
- Parameters: regimen Daily Repeat, gender Male, age 6-8 weeks
- details: in vivo, po, 2000 mg/kg, 120 h, tissue Plasma, route oral GAVAGE, dose level High, time 5 day, vehicle .5 % CMC
readout: SODIUM (MEQ/L)
Numbers only, in MEQ/L.

The examples below pair each entry with its known result.
Problem: For the molecule CC1(C)S[C@@H]2[C@H](NC(=O)[C@H](N)c3ccccc3)C(=O)N2[C@H]1C(=O)O , what SODIUM is on record?
Result: 148.53

Problem: Consider next the molecule O=C1Nc2ccc(Cl)cc2C(c2ccccc2Cl)=NC1O (stereo unspecified) in the same way.
Result: 145.4

// each listed molecule needs a value for SODIUM
1. CN(C/C=C/C#CC(C)(C)C)Cc1cccc2ccccc12
2. CN/C(=N/CCSCc1nc[nH]c1C)NC#N
3. NC1CCN(c2nc3c(cc2F)c(=O)c(C(=O)O)cn3-c2ccc(F)cc2F)C1 (stereo unspecified)

Result:
1: 152; 2: 143.57; 3: 152.67

Problem: May I ask what SODIUM has been recorded for COc1cc2nc(N3CCN(C(=O)c4ccco4)CC3)nc(N)c2cc1OC ?
Result: 146.07

----------
- Species: Rattus norvegicus
- assaySummary: DrugMatrix - Regimen: Daily Repeat
- Type: toxicity, organism-based, Sprague-Dawley
- Parameters: regimen Daily Repeat, gender Male, age 6-8 weeks
- details: in vivo, po, 0 mg/kg, 72 h, tissue Blood, route oral GAVAGE, dose level Control, time 3 day, vehicle .5 % CMC
readout: MEAN CORPUSCULAR HEMOGLOBIN (pg)
Answers are plain numbers, in pg.

Solved entries (count: 3):
Problem: For the compound COc1ccc(C2C(=O)c3ccccc3C2=O)cc1 [ANISINDIONE] , what MEAN CORPUSCULAR HEMOGLOBIN is on record?
Result: 23.58

Problem: Now the compound Clc1ccccc1CN1CCc2sccc2C1 [TICLOPIDINE]
Result: 23.58

Problem: And what about the compound CN/C(=N/CCSCc1nc[nH]c1C)NC#N [CIMETIDINE] ?
Result: 25.1

Batch of 4 compounds: report MEAN CORPUSCULAR HEMOGLOBIN for each.
1. O=C1Nc2ccc(Cl)cc2C(c2ccccc2Cl)=NC1O (stereo not given) [LORAZEPAM]
2. Cn1c(=O)c2c(ncn2CC(O)CO)n(C)c1=O (stereo not given) [DYPHYLLINE]
3. CN(C/C=C/C#CC(C)(C)C)Cc1cccc2ccccc12 [TERBINAFINE]
4. CC(C(=O)O)c1ccc2oc(-c3ccc(Cl)cc3)nc2c1 (stereo not given) [BENOXAPROFEN]

Result:
1. 24.6
2. 25.38
3. 21.9
4. 20.57
